Molecular target: T1, MICA004-ECD-HISAvi (human)
T1 construct: also called MICA004 polypeptide
T1 chain: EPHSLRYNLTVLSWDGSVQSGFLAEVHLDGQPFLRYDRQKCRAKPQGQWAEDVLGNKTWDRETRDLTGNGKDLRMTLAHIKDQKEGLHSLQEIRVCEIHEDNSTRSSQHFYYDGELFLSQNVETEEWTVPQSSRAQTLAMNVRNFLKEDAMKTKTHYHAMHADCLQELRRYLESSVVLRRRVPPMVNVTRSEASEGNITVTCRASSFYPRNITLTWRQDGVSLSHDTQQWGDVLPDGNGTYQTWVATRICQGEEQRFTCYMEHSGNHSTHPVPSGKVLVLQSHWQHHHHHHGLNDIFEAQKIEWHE
Experiment: SPR (Carterra); antibody captured by anti-human Fc, monomeric ECD antigen injected
# Lookup of reported pKd keyed by entry
Please express pKd as -log10 of the molar concentration.

Binder | pKd
D2M001-001 (antibody, V domains shown, only the CDRs are tied to the name in the text; copies: 2 + 2) VH: QVQLVQSGAEVKKPGSSVKVSCKASGYTFSHHSISWVRQAPGQGLEWIGGIYPGKIKTNYAQKFQGRATLTADKSTSTAYMELSSLRSEDTAVYYCATLYGNYEAYWGQGTLVTVSS VL: DIQMTQSPSSLSASVGDRVTITCRASENIYGALNWYQQKPGKSPKLLIYGTTSLQSGVPSRFSGSGSGRDYTLTISSLQPEDFATYYCQNVLTTPPWTFGGGTKVEIK | 6.81
13A9 (antibody, human IgG1, kappa, V domains shown) VH: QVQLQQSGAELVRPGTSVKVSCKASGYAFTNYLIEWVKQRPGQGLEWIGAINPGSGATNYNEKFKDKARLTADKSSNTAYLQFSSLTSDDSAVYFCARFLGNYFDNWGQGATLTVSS VL: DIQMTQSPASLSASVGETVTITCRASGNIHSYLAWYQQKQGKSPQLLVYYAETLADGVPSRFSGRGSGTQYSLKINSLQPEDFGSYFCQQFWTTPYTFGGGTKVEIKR | 7.89
3F9 (antibody, human IgG1, kappa, V domains shown, also called benchmark 3F9) VH: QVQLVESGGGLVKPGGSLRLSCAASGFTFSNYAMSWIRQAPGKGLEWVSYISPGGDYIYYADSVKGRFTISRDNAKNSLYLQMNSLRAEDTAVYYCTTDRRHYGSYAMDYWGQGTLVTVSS VL: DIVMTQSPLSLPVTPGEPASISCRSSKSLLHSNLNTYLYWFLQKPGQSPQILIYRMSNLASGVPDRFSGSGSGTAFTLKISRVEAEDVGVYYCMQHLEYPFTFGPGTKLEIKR | 8.56

Please look at the following binder next.
For 1D5 (antibody, human IgG1, kappa, V domains shown, also called ID5) VH: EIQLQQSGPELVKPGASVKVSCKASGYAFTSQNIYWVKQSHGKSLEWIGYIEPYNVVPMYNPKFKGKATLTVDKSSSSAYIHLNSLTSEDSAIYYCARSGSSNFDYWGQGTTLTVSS VL: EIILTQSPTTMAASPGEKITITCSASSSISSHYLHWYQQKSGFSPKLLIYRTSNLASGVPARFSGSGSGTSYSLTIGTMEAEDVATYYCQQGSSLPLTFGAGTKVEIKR the binder record lists pKd as 9.28
